Each record here notes measured growth inhibition.
Assay: NCI Yeast Anticancer Drug Screen. Data for the rad50 strain (AID 155);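 also: 0% = growth of vehicle-only cultures of the same strain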
Conditions: S. cerevisiae rad50 strain growth inhibition; at 50.0 µM; hits give high values
Compounds without any hit were thinned out: in the full panel of roughly 79,000, 15% have a hit.
Numeric answer only, unit % assumed.

Please review the following examples before continuing.
[
  {
    "Molecule": "CCc1ccc(N=Cc2cc(OC)c(OC)c(OC)c2)cc1",
    "Value": -4.2
  },
  {
    "Molecule": "O=C(c1ccccc1)c1cccnc1",
    "Value": -10.6
  },
  {
    "Molecule": "Nc1ccn([C@H]2CO[C@@H](CO)O2)c(=O)n1",
    "Value": -53
  },
  {
    "Molecule": "NC(N)=NS(=O)(=O)c1ccc(NC(=O)c2cccn3c(=O)c4ccccc4nc23)cc1",
    "Value": -6.9
  }
]

## Task Given the entry `O=C(c1ccccc1Cl)c1ccc2ccccc2c1C(=O)O` , report its measured growth inhibition.
## Result 2.5

## Task Same read-out for CC(O)C(C)C(N)C(=O)O (configuration not stated) ?
## Result 3.7

## Task For CN1C=C([N+](=O)[O-])C(N2CCOCC2)C1N1CCOCC1 (configuration not stated) then?
## Result 3.1

## Task Next entry: `CC1(C)O[C@@H]2[C@@H](COC(=O)c3ccccc3)C[C@@H](C#N)[C@@H]2O1`
## Result 4.05

## Task Proceed to `Cn1c2c(cc(-c3ccccc3)c1=O)COc1ccccc1-2`
## Result 31.1

## Task // same read-out, input: `CCCCC(=O)N/N=C\c1cc(Cl)ccc1[N+](=O)[O-]`
## Result 17.6

## Task Another molecule: CCCC(=O)C(CC)C(=O)OCC (configuration not stated)
## Result -8.7

## Task Follow-up entry: `CCCCCc1cc(O)cc2c1Oc1cc(O)cc(C(=O)CCCC)c1C(=O)O2`
## Result 4

====

# growth inhibition per record follows
Experiment: NCI Yeast Anticancer Drug Screen. Data for the mec2-1 strain (AID 157)
Settings: S. cerevisiae mec2-1 strain, at 50.0 µM, hits give high values
The panel holds about 79,000 compounds, 15% with a hit somewhere; the sample as a whole holds those more often. Active and inactive are the calls of the source. Rule as the data show it: active = growth inhibition above about 70%; inactive = the rest. Where a SMILES comes first, the peptide text is derived from it. [ ]: non-standard residue; d: D form. The star is where a group is joined. Cbz = O=C(OCc1ccccc1)*; Nva = CCC[CH](N)C(=O)O

[
  {
    "Compound": "COC(=O)c1cc(Cl)ccc1Br",
    "Test Readout": "growth inhibition",
    "Value": "14.1% (inactive)"
  },
  {
    "Compound": "C[C@@H]1CN(c2ccccc2)C[C@H](C)OS(=O)O1 (some centres not stated)",
    "Test Readout": "growth inhibition",
    "Value": "-1.95% (inactive)"
  },
  {
    "Compound": "O=C(O)/C=C\\Sc1ccccc1C(=O)O",
    "Test Readout": "growth inhibition",
    "Value": "-15.9% (inactive)"
  },
  {
    "Compound": "CC12CCC(CC1)C2(C)C",
    "Test Readout": "growth inhibition",
    "Value": "0.3% (inactive)"
  }
]

## Task Bench note: what growth inhibition did `O=C(NC(=O)c1ccccc1F)Nc1ccc(Cl)cc1` show?
## Result 37.3% (inactive)

## Task What would you report for `c1ccc(CNc2ncnc3n[nH]nc23)cc1` ?
## Result -11.8% (inactive)

## Task Another compound: `O=C1OC(=O)c2ccccc21`
## Result -15.2% (inactive)

## Task Also CCCC(NC(=O)OCc1ccccc1)C(=O)NC(C(=O)O)C(C)CC (configuration not stated) (Cbz-[Nva]-Ile-OH; configuration not given here) ?
## Result 12.4% (inactive)

## Task Request: `CC(=O)Nc1cccc([N+](=O)[O-])c1`
## Result -10.3% (inactive)

## Task Okay, and CC(=O)OC1C=CC(OC(C)=O)C2C1[C@H]1C3C=CC=CC3[C@@H]2S1=O (some centres not stated) ?
## Result -35.8% (inactive)

## Task Also need CC(=O)Oc1cc2c(cc1C(NC(N)=O)c1ccc3c(c1)OCO3)OCO2 (configuration not stated) , thanks.
## Result 2.7% (inactive)

## Task Then this compound: `CCOc1ccc(Nc2nc(N)nc(N)c2N)cc1`
## Result 10.8% (inactive)

====

Experiment: NCI Yeast Anticancer Drug Screen. Data for the cln2 rad14 strain (AID 165);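 also: 0% = growth equal to vehicle treated cultures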
Settings: S. cerevisiae cln2 rad14 strain, at 50.0 µM, hits give high values
About 79,000 compounds went through this panel and 15% of them were active in at least one assay; those are over-represented in the sample as a whole.
I would appreciate it if you labelled entries true when growth inhibition is -10% or higher, otherwise false.

Take a look at these entries with their results.
[
  {
    "Molecule": "CCOC(=O)c1ccc(CSc2ccc(OC)cc2)cc1",
    "Class Label": "true"
  },
  {
    "Molecule": "CCc1ccc(/C=C/C(=O)C(C)CN(C)C)cc1 (stereo unspecified)",
    "Class Label": "true"
  },
  {
    "Molecule": "Cc1nc(-c2cc([N+](=O)[O-])cc([N+](=O)[O-])c2)oc1-c1ccccc1",
    "Class Label": "true"
  },
  {
    "Molecule": "CCCCCCCCCC(=O)OC",
    "Class Label": "false"
  },
  {
    "Molecule": "Cc1cc(OCC(=O)O)c(Cl)cc1Cl",
    "Class Label": "false"
  }
]

## Task hey, is growth inhibition for this one >= -10%? `COC(=O)c1cn[nH]c1CC(N)=O`
## Result false

## Task Try `CCCCCCCCCCCCCCCCS(=O)(=O)N/N=C(/c1ccc(OC)c(OC)c1)N1CCCCC1` next.
## Result true

## Task Can you handle NC(=O)C(Cc1ccc(O)cc1)NC(=O)c1cccnc1 (stereo unspecified) next?
## Result true

## Task Then this molecule: O=C(/C=C/c1ccc(O)c(O)c1)OC1C[C@@](O)(C(=O)O)C[C@@H](O)[C@H]1OC(=O)/C=C/c1ccc(O)c(O)c1 (stereo partly specified)
## Result true

## Task // repeat for `Cn1c(=O)c2c(ncn2CCCCn2ccnc2[N+](=O)[O-])n(C)c1=O` and report
## Result true

====

Test: NCI Yeast Anticancer Drug Screen. Data for the rad50 strain (AID 155);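 also: 0% = growth of vehicle-only cultures of the same strain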
Details: S. cerevisiae rad50 strain growth inhibition; at 50.0 µM; hits give high values
About 79,000 compounds went through this panel and 15% of them were active in at least one assay; those are over-represented in the sample as a whole.
Overview of reported growth inhibition across a group of compounds:
Answer in %, number only, no unit symbol.

[
  {
    "Compound": "CC1CC(c2ccccc2)=Nc2ccccc2S1 (stereo not given)",
    "Value Unit": "%",
    "growth inhibition": 18.2
  },
  {
    "Compound": "ClCC1=NC2C(Cl)C(Cl)C(Cl)C(Cl)C2N1 (stereo not given)",
    "Value Unit": "%",
    "growth inhibition": 87.8
  },
  {
    "Compound": "OC1(c2ccccc2)C(c2ccccc2)=C(c2ccccc2)C(c2ccc(CCCCCCCCc3ccc(C4=C(c5ccccc5)C(O)(c5ccccc5)C(c5ccccc5)=C4c4ccccc4)cc3)cc2)=C1c1ccccc1 (stereo not given)",
    "Value Unit": "%",
    "growth inhibition": -20.4
  },
  {
    "Compound": "CC(C)CCCC(C)C1CCC2C3C=C(C(=O)O)C(C)(CCC(=O)O)C3CCC12C (stereo not given)",
    "Value Unit": "%",
    "growth inhibition": 45
  },
  {
    "Compound": "C[n+]1ccn(S(=O)(=O)[O-])c1",
    "Value Unit": "%",
    "growth inhibition": 1.9
  }
]

## Task Dear colleague, I am looking for the recorded growth inhibition of the following compound: `O=C(NC(=O)c1ccccc1F)Nc1ccc(Cl)cc1`
## Result 27.1

## Task Next: `Cc1cccc(NC(=O)/C=C/c2ccc(N(CCC#N)CCC#N)cc2C)c1`
## Result 9.15

## Task Check `CN=C1NC(C)(C)C2CCC(C)(CC2)S1` too.
## Result 8.35

## Task Similarly, `C/C(=N\N=C(N)N)c1sc(-c2nc(C)c(/C(C)=N/N=C(N)N)s2)nc1C` ?
## Result 4.35

## Task Next up: CC(O)C(O)C(O)C(O)C(/C=N/Nc1ccccc1)=N/Nc1ccccc1 (stereo not given)
## Result 3.75

====

Experiment: NCI Yeast Anticancer Drug Screen. Data for the mlh1 rad18 strain (AID 175)
Conditions: S. cerevisiae mlh1 rad18 strain growth inhibition; at 50.0 µM; hits give high values
About 79,000 compounds went through this panel and 15% of them were active in at least one assay; those are over-represented in the sample as a whole. Activity calls are given as the source filed them. No stated cut-off is given here; in the data, active means growth inhibition above about 70%; inactive means the rest.
Examples of compounds with documented growth inhibition follow.

Consider the reported growth inhibition for these compounds:
[
  {
    "Compound": "CC(C)c1cccc(C(C)C)c1NC(=O)/C(Cc1nc2ccc(Cl)cc2[nH]c1=O)=N\\NC(=O)C[N+](C)(C)C",
    "growth inhibition": "22.7% (inactive)"
  },
  {
    "Compound": "CC(=O)O[C@H]1C[C@H]2[C@@H](OC(C)=O)/C=C3\\C[C@](C)(C(=O)[C@H](O)C(=C1C)C2(C)C)[C@@H](O)C[C@@H]3OC(=O)[C@H](O)[C@H](c1ccccc1)N(C)C",
    "growth inhibition": "2.4% (inactive)"
  },
  {
    "Compound": "COc1ccc2c(-c3cc4ccccc4o3)cc(=O)oc2c1",
    "growth inhibition": "-31.9% (inactive)"
  },
  {
    "Compound": "C/C(=C(/O)c1ccc(Cl)cc1)c1nc2cc(Cl)cc([N+](=O)[O-])c2[nH]c1=O",
    "growth inhibition": "53.5% (inactive)"
  },
  {
    "Compound": "COc1ccc(/C=C2\\N=C(c3ccc(Cl)cc3)OC2=O)cc1Br",
    "growth inhibition": "17.3% (inactive)"
  },
  {
    "Compound": "CC(C)C(=O)OC1(Cc2cccc[n+]2C)CCCCC1",
    "growth inhibition": "1.45% (inactive)"
  }
]

Now let's try a different one.
## Task Given the entry `O=[N+]([O-])c1cc(Cl)ccc1NC(Nc1ccc(Cl)cc1[N+](=O)[O-])C(Cl)(Cl)Cl` , report its measured growth inhibition.
## Result 35.8% (inactive)
